Biological target: Adenosine receptor A1 (Cavia porcellus)
Sequence (P47745 whole entry): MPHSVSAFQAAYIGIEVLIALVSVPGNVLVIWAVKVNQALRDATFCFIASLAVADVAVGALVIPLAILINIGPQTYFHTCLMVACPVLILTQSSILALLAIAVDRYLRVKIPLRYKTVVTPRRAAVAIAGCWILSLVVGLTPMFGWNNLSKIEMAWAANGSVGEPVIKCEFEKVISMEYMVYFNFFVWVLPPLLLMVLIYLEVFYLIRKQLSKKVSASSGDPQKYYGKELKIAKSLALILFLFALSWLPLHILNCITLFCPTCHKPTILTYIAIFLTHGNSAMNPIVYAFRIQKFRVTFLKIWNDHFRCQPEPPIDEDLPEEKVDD
Assay: Ex vivo inhibition of guinea pig ileum twitch via Adenosine A1 receptor.
Format: tissue-based
Please mark Satisfied if the recorded ECR is equal to or greater than 400, and Not satisfied if it falls below.

-- ask Hi, just wondering whether CCNC(=O)[C@H]1O[C@@H](n2cnc3c(N)nc(N[C@@H]4CCC[C@H]4O)nc32)[C@H](O)[C@@H]1O shows ECR of 400 or higher.
-- reply Not satisfied

-- ask Hi, just wondering whether OC[C@H]1O[C@@H](n2cnc3c(N[C@@H]4CCC[C@@H]4O)nc(Cl)nc32)[C@H](O)[C@@H]1O shows ECR of 400 or higher.
-- reply Not satisfied

-- ask Hi, just wondering whether Nc1nc(N[C@@H]2CCC[C@H]2O)nc2c1ncn2[C@@H]1O[C@H](CO)[C@@H](O)[C@H]1O shows ECR of 400 or higher.
-- reply Satisfied

-- ask Hi, just wondering whether OC[C@H]1O[C@@H](n2cnc3c(NCCc4cccc(Cl)c4)nc(NC4CCCC4)nc32)[C@H](O)[C@@H]1O shows ECR of 400 or higher.
-- reply Satisfied

-- ask Hi, just wondering whether OC[C@H]1O[C@@H](n2cnc3c(NCC(c4ccccc4)c4ccccc4)nc(NC4CCCC4)nc32)[C@H](O)[C@@H]1O shows ECR of 400 or higher.
-- reply Satisfied

-- ask Hi, just wondering whether CCNC(=O)[C@H]1O[C@@H](n2cnc3c(NCC(c4ccccc4)c4ccccc4)nc(N[C@H]4CC[C@H](N)CC4)nc32)[C@H](O)[C@@H]1O.O=C(O)C(F)(F)F shows ECR of 400 or higher.
-- reply Not satisfied

----------
Answer each item with its documented solubility.
assay: The compound was evaluated for the aqueous solubility at pH value of 2.6.; assay type: physicochemical; conditions: pH 2.6
Numbers only here, please. The scale is µg/mL.

Measured solubility of CCNC(=O)[C@H]1O[C@@H](n2cnc3c(NCC(c4ccccc4)c4ccccc4)nc(N[C@H]4CC[C@H](N)CC4)nc32)[C@H](O)[C@@H]1O.O=C(O)C(F)(F)F : 1570

Measured solubility of CCNC(=O)[C@H]1O[C@@H](n2cnc3c(NCC(c4ccccc4)c4ccccc4)nc(NC4CCCC4)nc32)[C@H](O)[C@@H]1O : 24
